Target: T1, TNFR1 (Homo sapiens, UniProt P19438)
T1 chain: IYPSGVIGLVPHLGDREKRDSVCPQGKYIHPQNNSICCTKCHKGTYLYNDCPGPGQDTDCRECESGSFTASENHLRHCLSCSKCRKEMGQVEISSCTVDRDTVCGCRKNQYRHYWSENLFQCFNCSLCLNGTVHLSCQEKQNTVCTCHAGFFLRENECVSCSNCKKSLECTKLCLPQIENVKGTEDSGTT
Test: yeast display SC50
measurement_label: apparent Kd (screen) (nM)
Just the number please, in nM, no unit attached.

Consider the worked cases shown below.
binder	measurement_label	reported_value
L79Q (designed binder) SMEEEVEKAAKEYEKKKKEAIEKHLEKLKAKDKEAAERFLKELEEAAKEYAKDEAKTMSEEEAKRRAKKYKEKVLLSEQSEEEQKEIKEAEEKLVRTILKYVEEAAK	apparent Kd (screen)	2.48
K93C (designed binder) SMEEEVEKAAKEYEKKKKEAIEKHLEKLKAKDKEAAERFLKELEEAAKEYAKDEAKTMSEEEAKRRAKKYKEKVLLSELSEEEQKEIKEAEECLVRTILKYVEEAAK	apparent Kd (screen)	1.54
E91D (designed binder) SMEEEVEKAAKEYEKKKKEAIEKHLEKLKAKDKEAAERFLKELEEAAKEYAKDEAKTMSEEEAKRRAKKYKEKVLLSELSEEEQKEIKEADEKLVRTILKYVEEAAK	apparent Kd (screen)	0.446

Here is another binder to look at.
Exercise: For E3H (designed binder) SMHEEVEKAAKEYEKKKKEAIEKHLEKLKAKDKEAAERFLKELEEAAKEYAKDEAKTMSEEEAKRRAKKYKEKVLLSELSEEEQKEIKEAEEKLVRTILKYVEEAAK , write its apparent Kd (screen).
Solution: 1.86

Reference for the values: paper PMC12416549
